System: HEK293
Experiment: Cytotoxicity against HEK293 cells by MTT assay
Assay type: cell-based
Details: Homo sapiens
measured_metric: IC50 (µM)
Only the number, expressed in µM, is required.

HEK293 / IC50 / `COc1cc2ncnc(Nc3cc(-c4ccc(Cl)cc4)[nH]n3)c2cc1OC` : value?
81.2

For the record `COc1cc2ncnc(Nc3cc(-c4ccccc4)[nH]n3)c2cc1OC` , what value of IC50 is listed for HEK293?
71.1

Reported IC50 for HEK293, given `COc1cc2ncnc(Nc3cc(O)[nH]n3)c2cc1OC` ?
69.5

----------
System: MIA PaCa-2
Assay: Cytotoxicity against human MIAPaCa2 cells by MTT assay
Assay type: functional, cell-based
pIC50: −log10 of the molar value.
Record form. Attribute: pIC50. Fill in for each entry.

Could you share which pIC50 value was measured for `COc1cc2ncnc(Nc3n[nH]cc3C#N)c2cc1OC` ?
< 4.00

Can you look up the measured pIC50 of `COc1cc2ncnc(Nc3cc(-c4ccccc4)n(-c4ccccc4)n3)c2cc1OC` for me?
4.14

What value of pIC50 has been reported for the following compound? `COc1cc2ncnc(Nc3cc(-c4ccc(Cl)cc4)[nH]n3)c2cc1OC`
> 4.00

Value lookup for pIC50; key = `COc1cc2ncnc(Nc3cc(-c4ccc(F)cc4)[nH]n3)c2cc1OC`
< 4.00

Give its pIC50 value. Item: `COc1cc2ncnc(Nc3cc(-c4ccccc4)[nH]n3)c2cc1OC`
< 4.00

What value of measured pIC50 is listed for `COc1ccc(-c2cc(Nc3ncnc4cc(OC)c(OC)cc34)n[nH]2)cc1` ?
> 4.00

What does the data say about its pIC50? Entry: `COc1cc2ncnc(Nc3cc(O)[nH]n3)c2cc1OC`
< 4.00

Sourced from ChEMBL document CHEMBL4020763
